The reported measurements were obtained from ChEMBL document CHEMBL2062445.

Exercise: for every item that follows, state its recorded inhibition.
target: Neuronal acetylcholine receptor subunit alpha-7 (Homo sapiens, UniProt P36544); test: Antagonist activity at human alpha7 nAChR expressed in Xenopus oocyte assessed as inhibition of ACh-induced current at 10 uM after 30 secs by electrophysiological assay; format: functional
Sequence (P36544 whole entry): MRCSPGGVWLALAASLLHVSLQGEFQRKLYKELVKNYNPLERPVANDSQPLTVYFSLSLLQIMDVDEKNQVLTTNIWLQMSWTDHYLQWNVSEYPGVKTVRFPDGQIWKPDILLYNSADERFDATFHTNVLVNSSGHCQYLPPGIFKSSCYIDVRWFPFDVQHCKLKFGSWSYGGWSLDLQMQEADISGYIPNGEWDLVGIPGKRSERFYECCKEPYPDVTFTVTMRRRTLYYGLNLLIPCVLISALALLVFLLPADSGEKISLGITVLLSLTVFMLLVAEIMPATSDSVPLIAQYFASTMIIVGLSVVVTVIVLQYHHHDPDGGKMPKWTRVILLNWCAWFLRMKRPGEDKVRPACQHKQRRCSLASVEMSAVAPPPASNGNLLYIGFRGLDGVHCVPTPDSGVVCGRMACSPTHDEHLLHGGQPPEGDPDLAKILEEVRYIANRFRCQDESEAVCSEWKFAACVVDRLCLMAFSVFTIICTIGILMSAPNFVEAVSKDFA
Value expressed in %; do not type the unit.

Look up inhibition for this molecule: CC(C)N1CCN(C(=O)c2ccc3ncsc3c2)CC1
85

Look up inhibition for this molecule: O=C(N[C@@H]1CCCC[C@H]1N1CCCCC1)Oc1ccc(Br)cc1 (racemic)
34

Look up inhibition for this molecule: CCCC#CCN1CC[C@H](NC(=O)c2ccc3ncsc3c2)C1
81

Look up inhibition for this molecule: CCN1CCC[C@@H]1CNC(=O)c1ccc2ncsc2c1
53

Look up inhibition for this molecule: O=C(NCC1=CC2CCN1CC2)c1ccc(Cl)cc1
50

Look up inhibition for this molecule: O=C(c1ccc2c(c1)OCCO2)N1CCCN2CCC[C@@H]2C1
40

Look up inhibition for this molecule: CC(C)N1CCCCN(C(=O)c2ccc(Cl)cc2)CC1
35

Look up inhibition for this molecule: O=C(NCC12CCCN1CCC2)c1ccc2ncsc2c1
34

Look up inhibition for this molecule: CN1CC2CCC1C(CNC(=O)c1ccc(Br)cc1)C2 (racemic; form 2)
66

Look up inhibition for this molecule: CC(C)N1CCN(C(=O)Oc2ccc(Br)cc2)CC1
82

Look up inhibition for this molecule: CCC#CCN1CCC[C@@H]1CNC(=O)c1ccc(Cl)cc1
21

Look up inhibition for this molecule: O=C(NCC1=CC2CCN1CC2)c1ccc(F)cc1
36

Look up inhibition for this molecule: CCC#CCN1CCC[C@@H]1CNC(=O)c1ccc2ncsc2c1
13

Look up inhibition for this molecule: CN(C)CCNC(=O)c1ccc(Cl)cc1
68

Look up inhibition for this molecule: CC(C)N1C[C@H]2C[C@@H]1CN2C(=O)c1ccc(Cl)cc1
69

Look up inhibition for this molecule: CCC#CCN1CCC[C@H]1CNC(=O)c1ccc2ncsc2c1
88

Look up inhibition for this molecule: CCN1CCC[C@@H]1CNC(=O)Oc1ccc(Br)cc1
53

Look up inhibition for this molecule: O=C(N[C@@H]1CCN(Cc2ccccc2)C1)c1ccc2ncsc2c1
59

Look up inhibition for this molecule: CCC#CCN1CCC[C@@H]1CNC(=O)c1ccc2c(c1)OCCO2
96

Look up inhibition for this molecule: O=C(NCC1=CC2CCN1CC2)Oc1ccc(Br)cc1
100

Look up inhibition for this molecule: O=C(NCC12CCCN1CCC2)c1ccc(Br)cc1
9

Look up inhibition for this molecule: CC(C)N1CCN(C(=O)c2ccc3c(c2)OCCO3)CC1
81

Look up inhibition for this molecule: O=C(N[C@H]1CCN(Cc2ccccc2)C1)c1ccc2ncsc2c1
94

Look up inhibition for this molecule: O=C(NCC12CCCN1CCC2)c1ccccc1Cl
35

Look up inhibition for this molecule: CN1CC2CCC1C(CNC(=O)c1ccccc1)C2 (racemic; form 1)
68

Look up inhibition for this molecule: C[C@H]1CN2CCCC[C@@H]2CN1C(=O)c1ccc2c(c1)OCCO2
75

Look up inhibition for this molecule: O=C(c1ccc(F)cc1)N1CCCN2CCC[C@@H]2C1
58

Look up inhibition for this molecule: CCN1CCC[C@@H]1CNC(=O)c1ccc(Cl)cc1
42

Look up inhibition for this molecule: O=C(N[C@H]1CCN(C2CCCCC2)C1)c1ccc2ncsc2c1
56

Look up inhibition for this molecule: CC(C)N1CCN(C(=O)c2ccc(Cl)cc2)CC1
84

Look up inhibition for this molecule: O=C(NCC1CC2CCN1CC2)c1ccc2c(c1)OCCO2 (racemic)
79

Look up inhibition for this molecule: CC1CCCC1N1CC[C@H](NC(=O)c2ccc3ncsc3c2)C1 (stereo partly drawn)
20

Look up inhibition for this molecule: CCC#CCN1CCC[C@@H]1CNC(=O)C1COc2ccccc2O1 (stereo partly drawn)
74

Look up inhibition for this molecule: O=C(NCC12CCCN1CCC2)c1ccc(Cl)cc1
32

Look up inhibition for this molecule: C[C@H]1CN2CCCC[C@@H]2CN1C(=O)c1ccc2ncsc2c1 (racemic)
61

Look up inhibition for this molecule: O=C(NCC1=CC2CCN1CC2)c1ccccc1
35

Look up inhibition for this molecule: CCN1CC[C@H](NC(=O)c2ccc3ncsc3c2)C1
139

Look up inhibition for this molecule: CN(C)CCNC(=O)C1COc2ccccc2O1 (stereo not drawn)
52

Look up inhibition for this molecule: O=C(NCC1CC2CCN1CC2)c1ccccc1 (racemic)
53

Look up inhibition for this molecule: CC(C)N1CCCCN(C(=O)c2ccc3ncsc3c2)CC1
40

Look up inhibition for this molecule: O=C(Oc1ccc(Br)cc1)N1CCCN2CCC[C@H]2C1
62

Look up inhibition for this molecule: O=C(Oc1ccc(Br)cc1)N1CCCN2CCC[C@@H]2C1
36

Look up inhibition for this molecule: CC(C)N1CCN(C(=O)C2COc3ccccc3O2)CC1 (stereo not drawn)
90

* * *

biological target: Neuronal acetylcholine receptor subunit alpha-7 (Homo sapiens, UniProt P36544); test: Antagonist activity at human alpha7 nAChR expressed in Xenopus oocyte assessed as inhibition of ACh-induced current at 10 uM after 30 secs by electrophysiological assay; type: functional
Classify as follows. Reported inhibition greater than or equal to 60%: yes. Reported inhibition below: no.

Answer whether inhibition of O=C(c1ccc2c(c1)OCCO2)N1CCCN2CCC[C@H]2C1 is greater than or equal to 60%.
no

Answer whether inhibition of O=C(NCC1CC2CCN1CC2)Oc1ccc(Br)cc1 (racemic) is greater than or equal to 60%.
yes

Answer whether inhibition of CN(C)CCNC(=O)c1ccc2ncsc2c1 is greater than or equal to 60%.
yes

Answer whether inhibition of O=C(C1COc2ccccc2O1)N1CCCN2CCC[C@H]2C1 (stereo partly specified) is greater than or equal to 60%.
no

Answer whether inhibition of CC(C)N1CCCCN(C(=O)c2ccc3c(c2)OCCO3)CC1 is greater than or equal to 60%.
no

Answer whether inhibition of O=C(NCC12CCCN1CCC2)c1cccc(Cl)c1 is greater than or equal to 60%.
no

* * *

biological target: Neuronal acetylcholine receptor subunit alpha-7 (Homo sapiens); assay: Antagonist activity at human alpha7 nAChR expressed in Xenopus oocyte assessed as inhibition of ACh-induced current at 10 uM after 30 secs by electrophysiological assay; type: functional
quantity.measured: inhibition (%)
Value expressed in %; do not type the unit.

Look up inhibition for this molecule: C[C@H]1CN2CCCC[C@@H]2CN1C(=O)c1ccc(Cl)cc1
65

Look up inhibition for this molecule: CN1CC2CCC1C(CNC(=O)c1ccc(F)cc1)C2 (racemic; form 1)
52

Look up inhibition for this molecule: O=C(NCC12CCCN1CCC2)c1ccc2c(c1)OCCO2
33

Look up inhibition for this molecule: O=C(NCC12CCCN1CCC2)c1ccccc1
26

Look up inhibition for this molecule: CC1CCCC1N1CC[C@H](NC(=O)c2ccc(Cl)cc2)C1 (stereo partly specified)
33

Look up inhibition for this molecule: CN1CC2CCC1C(CNC(=O)c1ccc(Cl)cc1)C2 (racemic; form 1)
60

* * *

molecular target: Neuronal acetylcholine receptor subunit alpha-7 (Homo sapiens); assay: Antagonist activity at human alpha7 nAChR expressed in Xenopus oocyte assessed as inhibition of ACh-induced current at 10 uM after 30 secs by electrophysiological assay; format: functional
quantity.measured: inhibition (%)
Value expressed in %; do not type the unit.

Look up inhibition for this compound: O=C(NC[C@H]1CCCN1C1CCCCC1)c1ccc2ncsc2c1
71

Look up inhibition for this compound: O=C(NCC1CC2CCN1CC2)c1ccc(F)cc1 (racemic)
84

Look up inhibition for this compound: CC(C)N1CCC[C@@H]1CNC(=O)Oc1ccc(Br)cc1
27

Look up inhibition for this compound: O=C(NCC1=CC2CCN1CC2)c1ccc(Br)cc1
30

Look up inhibition for this compound: O=C(c1ccc2ncsc2c1)N1CCCN2CCC[C@H]2C1
53

Look up inhibition for this compound: CN1CC2CCC1C(CNC(=O)c1ccc(Cl)cc1)C2 (racemic; form 2)
61

Look up inhibition for this compound: CN1CC2CCC1C(CNC(=O)c1ccc3c(c1)OCCO3)C2 (racemic; form 1)
81

Look up inhibition for this compound: CC1CCCC1N1CCC(NC(=O)c2ccc3ncsc3c2)CC1 (stereo unspecified)
65

Look up inhibition for this compound: CCCN1CCC[C@@H]1CNC(=O)c1ccc(F)cc1
22

Look up inhibition for this compound: O=C(c1ccc(Br)cc1)N1CCCN2CCC[C@@H]2C1
40

Look up inhibition for this compound: CN1CC2CCC1C(CNC(=O)c1ccc3c(c1)OCCO3)C2 (racemic; form 2)
77

* * *

target: Neuronal acetylcholine receptor subunit alpha-7 (Homo sapiens, UniProt P36544); experiment: Antagonist activity at human alpha7 nAChR expressed in Xenopus oocyte assessed as inhibition of ACh-induced current at 10 uM after 30 secs by electrophysiological assay; format: functional
quantity.measured: inhibition (%)
Value expressed in %; do not type the unit.

Look up inhibition for this molecule: CN(C)CCNC(=O)c1ccc2c(c1)OCCO2
87

Look up inhibition for this molecule: O=C(NCC1=CC2CCN1CC2)c1ccc2c(c1)OCCO2
50

Look up inhibition for this molecule: O=C(c1ccccc1)N1CCCN2CCC[C@@H]2C1
55

Look up inhibition for this molecule: CN1CC2CCC1C(CNC(=O)c1ccc(Br)cc1)C2 (racemic; form 1)
71

Look up inhibition for this molecule: Cc1ccc(C(=O)NCC23CCCN2CCC3)cc1
25

Look up inhibition for this molecule: CCC#CCN1CCC[C@@H]1CNC(=O)Oc1ccc(Br)cc1
72

Look up inhibition for this molecule: CC(C)N1CCCCN(C(=O)C2COc3ccccc3O2)CC1 (configuration not stated)
37

Look up inhibition for this molecule: O=C(c1ccc(Cl)cc1)N1CCCN2CCC[C@H]2C1
57

Look up inhibition for this molecule: CN1CC2CCC1C(CNC(=O)c1ccc(F)cc1)C2 (racemic; form 2)
55

Look up inhibition for this molecule: O=C(NCC12CCCN1CCC2)C1COc2ccccc2O1 (configuration not stated)
29

Look up inhibition for this molecule: CN1CC2CCC1C(CNC(=O)c1ccccc1)C2 (racemic; form 2)
54

Look up inhibition for this molecule: CCC#CCN1CCC[C@H]1COC(=O)c1ccc2ncsc2c1
60
